assay: Drug degradation in methanol assessed as half life; assay type: ADME
Quantity Measured: half-life

Briefly, half-life measured for `C=C(C/C=C\C=C/CC/C=C/CN(C)C(=O)/C=C(\C)OC)c1nc(C[C@@H](C)[C@H]2OC(=O)c3c(ccc(C)c3O)[C@@H]2O)co1` : ~168 h

###

Biological target: Prostaglandin E synthase (Homo sapiens)
Sequence (O14684 whole entry): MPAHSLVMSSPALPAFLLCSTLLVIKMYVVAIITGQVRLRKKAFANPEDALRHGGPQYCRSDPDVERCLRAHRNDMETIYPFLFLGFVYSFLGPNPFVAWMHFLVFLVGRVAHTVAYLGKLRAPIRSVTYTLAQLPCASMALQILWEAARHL
Quantity Measured: IC50

Briefly, IC50 measured for `C=C(C/C=C\C=C/CC/C=C/CN(C)C(=O)/C=C(\C)OC)c1ncco1` : > 30 µM

###

biological target: Polyunsaturated fatty acid 5-lipoxygenase (Homo sapiens); test: Inhibition of 5-LO (unknown origin)
Sequence (P09917 whole entry): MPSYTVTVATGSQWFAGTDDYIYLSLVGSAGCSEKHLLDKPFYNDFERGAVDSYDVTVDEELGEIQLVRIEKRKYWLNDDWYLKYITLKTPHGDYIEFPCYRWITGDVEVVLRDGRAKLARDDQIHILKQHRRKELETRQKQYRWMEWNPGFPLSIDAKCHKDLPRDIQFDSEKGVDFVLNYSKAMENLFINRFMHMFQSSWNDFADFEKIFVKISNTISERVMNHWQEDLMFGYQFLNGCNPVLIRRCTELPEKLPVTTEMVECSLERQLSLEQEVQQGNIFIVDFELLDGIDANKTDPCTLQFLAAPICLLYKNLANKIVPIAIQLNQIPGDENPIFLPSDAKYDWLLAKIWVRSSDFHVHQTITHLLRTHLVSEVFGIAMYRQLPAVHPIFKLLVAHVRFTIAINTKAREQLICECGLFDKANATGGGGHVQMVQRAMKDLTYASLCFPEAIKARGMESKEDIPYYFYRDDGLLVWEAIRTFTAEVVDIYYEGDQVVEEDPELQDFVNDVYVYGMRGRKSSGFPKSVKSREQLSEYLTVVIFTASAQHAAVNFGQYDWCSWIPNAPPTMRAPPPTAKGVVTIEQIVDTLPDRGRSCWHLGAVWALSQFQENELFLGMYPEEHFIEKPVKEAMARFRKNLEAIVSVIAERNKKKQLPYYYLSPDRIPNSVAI
Quantity Measured: IC50 (µM)
I only need the number, in µM, no unit after it.

Briefly, IC50 measured for `C=C(C/C=C\C=C/CC/C=C/CN(C)C(=O)/C=C(\C)OC)c1nc(C[C@@H](C)[C@H]2OC(=O)c3c(ccc(C)c3O)[C@@H]2O)co1` : 1.1

Briefly, IC50 measured for `C=C(C/C=C\C=C/CC/C=C/CN(C)C(=O)/C=C(\C)OC)c1nc(C[C@H](C)[C@@H]2CC[C@@H](C)C[C@H]2O)co1` : 1

Briefly, IC50 measured for `CO/C(C)=C/C(=O)N(C)C/C=C/CC/C=C\C=C/C[C@@H](C)c1nc(C[C@@H](C)[C@H]2OC(=O)c3c(ccc(C)c3O)[C@@H]2O)co1` : 6.9

Briefly, IC50 measured for `C=C(C/C=C\C=C/CC/C=C/CN(C)C(=O)/C=C(\C)OC)c1ncco1` : 24.5

###

biological target: Polyunsaturated fatty acid 5-lipoxygenase (Homo sapiens); test: Inhibition of 5-LO in human neutrophils; assay type: cell-based, Neutrophil
For each record, write down the corresponding pIC50.
Hey, just a heads up that pIC50 is the negative log base 10 of the concentration in molar.

The value of pIC50 recorded for `C=C(C/C=C\C=C/CC/C=C/CN(C)C(=O)/C=C(\C)OC)c1nc(C[C@@H](C)[C@H]2OC(=O)c3c(ccc(C)c3O)[C@@H]2O)co1` when tested on Polyunsaturated fatty acid 5-lipoxygenase (Homo sapiens) reads 5.60

The value of pIC50 recorded for `CO/C(C)=C/C(=O)N(C)C/C=C/CC/C=C\C=C/C[C@@H](C)c1nc(C[C@@H](C)[C@H]2OC(=O)c3c(ccc(C)c3O)[C@@H]2O)co1` when tested on Polyunsaturated fatty acid 5-lipoxygenase (Homo sapiens) reads 5.80

The value of pIC50 recorded for `C=C(C/C=C\C=C/CC/C=C/CN(C)C(=O)/C=C(\C)OC)c1nc(C[C@H](C)[C@@H]2CC[C@@H](C)C[C@H]2O)co1` when tested on Polyunsaturated fatty acid 5-lipoxygenase (Homo sapiens) reads 5.28

Values compiled from ChEMBL document CHEMBL5365443.
